Measured values drawn from patent US8247211B2 for this set.

Quick list: MIC Enterococcus faecium (GC 2243) per entry.
Test system: Enterococcus sp.
assay procedure: In vitro antibacterial evaluation: minimum inhibitory concentration (MIC), broth dilution method
Assay type: cell-based
test conditions: broth dilution, 18 hours at 35° C.
Numbered stars: 1 amine (or outer) side, 2 acyl side, 3 side chain; on linkers, the order of the positions; unused ones are H or OH. Square brackets hold non-standard residues; d marks the D form. Peptide text beside a SMILES is read from it. ξ: configuration not given here. X6 = N=C1NCC(CC(N[*:1])C(=O)[*:2])N1C1OC(CO)C(O)C(O)C1O; Tyr(3-NO2) = N[CH](Cc1ccc(O)c([N+](=O)[O-])c1)C(=O)O; X7 = N=C1NCC(CC(N[*:1])C(=O)[*:2])N1; ξPhe(βξ-Me) = CC(c1ccccc1)C(N)C(=O)O
readout kind: MIC Enterococcus faecium (GC 2243)

molecule="CC(c1ccccc1)C1NC(=O)CNC(=O)C(CO)NC(=O)C(C(O)C2CNC(=N)N2C2OC(CO)C(O)C(O)C2O)NC(=O)C(C(O)C2CNC(=N)N2)NC(=O)C(Cc2ccc(O)c(NC(=S)Nc3cc(C(F)(F)F)cc(C(F)(F)F)c3)c2)NC1=O (stereo not shown)" readout_kind="MIC Enterococcus faecium (GC 2243)" reported_value="64 µg/mL"
molecule="CC(c1ccccc1)C1NC(=O)CNC(=O)C(CO)NC(=O)C(CC2CNC(=N)N2C2OC(CO)C(O)C(O)C2O)NC(=O)C(CC2CNC(=N)N2)NC(=O)C(Cc2ccc(O)c([N+](=O)[O-])c2)NC1=O (stereo not drawn) [Example 10] (cyclo(G[ξPhe(βξ-Me)][Tyr(3-NO2)][X7][X6]S); configuration not given here)" readout_kind="MIC Enterococcus faecium (GC 2243)" reported_value=">64 µg/mL"
molecule="CC(=O)Nc1cc(CC2NC(=O)C(C(C)c3ccccc3)NC(=O)CNC(=O)C(CO)NC(=O)C(C(O)C3CNC(=N)N3C3OC(CO)C(O)C(O)C3O)NC(=O)C(C(O)C3CNC(=N)N3)NC2=O)ccc1O (stereo not shown)" readout_kind="MIC Enterococcus faecium (GC 2243)" reported_value="64 µg/mL"
molecule="CC(c1ccccc1)C1NC(=O)CNC(=O)C(CO)NC(=O)C(C(O)C2CNC(=N)N2C2OC(CO)C(O)C(O)C2O)NC(=O)C(C(O)C2CNC(=N)N2)NC(=O)C(Cc2ccc3oc(SCC(=O)c4ccccc4)nc3c2)NC1=O (stereo not shown)" readout_kind="MIC Enterococcus faecium (GC 2243)" reported_value="16 µg/mL"

----------
// reported MIC Staphylococcus haemolyticus (GC 4546) for each item listed
Test system: Staphylococcus sp.
assay procedure: In vitro antibacterial evaluation: minimum inhibitory concentration (MIC), broth dilution method
Type: cell-based
test conditions: Staphylococcus haemolyticus (GC 4546); 18 hours at 35° C.
From the text: […]
Numbered stars: 1 amine (or outer) side, 2 acyl side, 3 side chain; on linkers, the order of the positions; unused ones are H or OH. Square brackets hold non-standard residues; d marks the D form. Peptide text beside a SMILES is read from it. ξ: configuration not given here. X1 = N=C1NCC(C(O)C(N[*:1])C(=O)[*:2])N1C1OC(CO)C(O)C(O)C1O; ξEnduracididine(βξ-OH,4'ξ) = N=C1NCC(C(O)C(N)C(=O)O)N1
readout kind: MIC Staphylococcus haemolyticus (GC 4546) (µg/mL)

molecule="CC=C(C)C(=O)OC1C(CO)OC(OC2C(CO)OC(Oc3ccc(CC4NC(=O)C(C(C)c5ccccc5)NC(=O)CNC(=O)C(CO)NC(=O)C(C(O)C5CNC(=N)N5C5OC(CO)C(O)C(O)C5O)NC(=O)C(C(O)C5CNC(=N)N5)NC4=O)cc3)C(O)C2O)C(O)C1O (stereo not shown) [Example 278b]" tgt="Staphylococcus sp." unit_name=µg/mL reported_value=4
molecule="CC(c1ccccc1)C1NC(=O)CNC(=O)C(CO)NC(=O)C(C(O)C2CNC(=N)N2C2OC(CO)C(O)C(O)C2O)NC(=O)C(C(O)C2CNC(=N)N2)NC(=O)C(Cc2ccc(OC3OC(CO)C(OC4OC(COCC=Cc5ccccc5)C(O)C(O)C4O)C(O)C3O)cc2)NC1=O (stereo not shown) [Example 242]" tgt="Staphylococcus sp." unit_name=µg/mL reported_value=4
molecule="N=C1NCC(C(O)C2NC(=O)C(Cc3ccc(O)cc3)NC(=O)C(Cc3ccccc3)NC(=O)CNC(=O)C(CO)NC(=O)C(C(O)C3CNC(=N)N3C3OC(CO)C(O)C(O)C3O)NC2=O)N1 (stereo not drawn) [Example 279a] (cyclo(GFY[ξEnduracididine(βξ-OH,4'ξ)][X1]S); configuration not given here)" tgt="Staphylococcus sp." unit_name=µg/mL reported_value=64
molecule="COc1ccc(COCC2OC(OC3C(CO)OC(Oc4ccc(CC5NC(=O)C(C(C)c6ccccc6)NC(=O)CNC(=O)C(CO)NC(=O)C(C(O)C6CNC(=N)N6C6OC(CO)C(O)C(O)C6O)NC(=O)C(C(O)C6CNC(=N)N6)NC5=O)cc4)C(O)C3O)C(O)C(O)C2O)cc1OCc1ccccc1 (stereo not shown) [Example 239]" tgt="Staphylococcus sp." unit_name=µg/mL reported_value=1
